target: apo-human transferrin (apo-hTf) (Homo sapiens, UniProt P02787); experiment: Far-UV circular dichroism titration of apo-hTf, secondary structure content; details: compound concentration 0.8 (M)
Sequence (P02787 20-698): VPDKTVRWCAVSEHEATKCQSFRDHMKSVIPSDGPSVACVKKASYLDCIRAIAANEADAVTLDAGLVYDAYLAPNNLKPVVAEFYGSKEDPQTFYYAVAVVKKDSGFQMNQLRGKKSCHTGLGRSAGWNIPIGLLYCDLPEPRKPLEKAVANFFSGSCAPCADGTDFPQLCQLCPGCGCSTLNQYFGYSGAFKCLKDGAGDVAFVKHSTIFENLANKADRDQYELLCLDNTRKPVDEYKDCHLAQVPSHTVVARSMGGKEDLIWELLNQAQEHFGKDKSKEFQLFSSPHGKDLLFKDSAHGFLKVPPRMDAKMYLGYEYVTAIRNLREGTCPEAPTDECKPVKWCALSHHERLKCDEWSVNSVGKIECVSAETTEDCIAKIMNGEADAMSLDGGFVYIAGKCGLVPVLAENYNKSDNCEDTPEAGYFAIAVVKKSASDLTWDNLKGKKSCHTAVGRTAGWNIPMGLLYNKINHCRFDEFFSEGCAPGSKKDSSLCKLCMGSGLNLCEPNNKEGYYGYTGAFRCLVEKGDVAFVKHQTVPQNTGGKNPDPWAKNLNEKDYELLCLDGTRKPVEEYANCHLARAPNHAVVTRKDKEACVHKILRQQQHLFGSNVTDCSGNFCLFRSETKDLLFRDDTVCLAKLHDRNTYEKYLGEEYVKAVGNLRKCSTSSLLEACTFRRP
Listed below: other secondary structure content of apo-hTf values for each entry.
Express the result in % but write the number alone.

Below: 2 molecules and their reported other secondary structure content of apo-hTf.
| Molecule | Unit Descriptor | Number |
| --- | --- | --- |
| [Cl-].[Cl-].[Mo+4].c1cc[cH-]c1.c1cc[cH-]c1 | % | 19.4 |
| [Cl][Zr+2][Cl].c1cc[cH-]c1.c1cc[cH-]c1 | % | 18.8 |

Next molecule, please.
Provide only the value of recorded other secondary structure content of apo-hTf for [Cl-].[Cl-].[Ti+4].c1cc[cH-]c1.c1cc[cH-]c1 [Cp2TiCl2, titanocene dichloride] 18.9

====

target: apo-human transferrin (apo-hTf) (Homo sapiens, UniProt P02787); test: Thermodynamic parameters of apo-hTf complex formation; type: binding; settings: 310 K
Reported Property: ∆G° (kcal/mol)
Express the result in kcal/mol but write the number alone.

| Compound | ∆G° / kcal/mol |
| --- | --- |
| C1CCCC1.C1CCCC1.[Cl][W][Cl] [Cp2WCl2] | -4.653 |
| [Cl-].[Cl-].[V+4].c1cc[cH-]c1.c1cc[cH-]c1 [Cp2VCl2] | -6.587 |
| C1CCCC1.C1CCCC1.[Cl][Nb][Cl] [Cp2NbCl2] | -6.362 |
| [Cl][Zr+2][Cl].c1cc[cH-]c1.c1cc[cH-]c1 [Cp2ZrCl2] | -4.598 |
| N.N.[Cl][Pt][Cl] [(NH3)2Pt(II)Cl2, cis-diamminedichloroplatinum (II), reference compound] | -4.242 |
| [Cl-].[Cl-].[Ti+4].c1cc[cH-]c1.c1cc[cH-]c1 [Cp2TiCl2, titanocene dichloride] | -4.613 |
| [Cl-].[Cl-].[Mo+4].c1cc[cH-]c1.c1cc[cH-]c1 [Cp2MoCl2] | -4.625 |

Provide only the value of recorded ∆G° for [Cl-].[Cl-].[Hf+4].c1cc[cH-]c1.c1cc[cH-]c1 [Cp2HfCl2] -4.46

====

Listed below: biomolecular quenching rate constant kq values for each entry.
target: apo-human transferrin (apo-hTf) (Homo sapiens); assay: Fluorescence quenching of apo-hTf; assay type: binding; details: 317 K, kq=Ksv/τ0
Express the result in M⁻¹ s⁻¹ but write the number alone.

Below: 5 compounds and their reported biomolecular quenching rate constant kq.
| Compound | System Under Test | Unit Descriptor | biomolecular quenching rate constant kq |
| --- | --- | --- | --- |
| [Cl-].[Cl-].[Hf+4].c1cc[cH-]c1.c1cc[cH-]c1 | apo-human transferrin (apo-hTf) (Homo sapiens) | M⁻¹ s⁻¹ | 1.24e+11 |
| N.N.[Cl][Pt][Cl] [(NH3)2Pt(II)Cl2, cis-diamminedichloroplatinum (II), reference compound] | apo-human transferrin (apo-hTf) (Homo sapiens) | M⁻¹ s⁻¹ | 8.6e+10 |
| [Cl][Zr+2][Cl].c1cc[cH-]c1.c1cc[cH-]c1 | apo-human transferrin (apo-hTf) (Homo sapiens) | M⁻¹ s⁻¹ | 1.5e+11 |
| C1CCCC1.C1CCCC1.[Cl][W][Cl] | apo-human transferrin (apo-hTf) (Homo sapiens) | M⁻¹ s⁻¹ | 2.09e+11 |
| [Cl-].[Cl-].[V+4].c1cc[cH-]c1.c1cc[cH-]c1 | apo-human transferrin (apo-hTf) (Homo sapiens) | M⁻¹ s⁻¹ | 4.936e+12 |

Provide only the value of recorded biomolecular quenching rate constant kq for C1CCCC1.C1CCCC1.[Cl][Nb][Cl] 3.323e+12

Provide only the value of recorded biomolecular quenching rate constant kq for [Cl-].[Cl-].[Ti+4].c1cc[cH-]c1.c1cc[cH-]c1 [Cp2TiCl2, titanocene dichloride] 1.93e+11

Provide only the value of recorded biomolecular quenching rate constant kq for [Cl-].[Cl-].[Mo+4].c1cc[cH-]c1.c1cc[cH-]c1 2.05e+11
